# literature pull: BRD9 (Homo sapiens, UniProt Q9H8M2) IC50
ASSAY_METRIC: IC50 (nM)

>>> quantitative_readout("C/C=C/Cn1cc(-c2cc(C(=O)NCCO)ccc2OC)c2cc[nH]c2c1=O")
35
>>> quantitative_readout("COc1cc(-c2cn(C)c(=O)c3cc(C(=N)NC4CCS(=O)(=O)CC4)sc23)ccc1OCC(=O)NCCCCCCCCNc1cccc2c1CN(C1CCC(=O)NC1=O)C2=O (centres unmarked)")
12.3
>>> quantitative_readout("CCCCn1cc(-c2ncc(C(=O)N3CCOCC3)cc2OC)c2cc(C)[nH]c2c1=O")
210
>>> quantitative_readout("Cn1cc(C(=O)N2CCC(c3ccccc3)C2)c2cc[nH]c2c1=O (centres unmarked)")
4100
>>> quantitative_readout("CC(NC(=O)c1cn(C)c(=O)c2[nH]ccc12)C1CC2CCC1C2 (centres unmarked)")
240

P. Cn1cc(C(=O)NC(c2ccccc2)c2ccccc2)c2cc[nH]c2c1=O
Q. CC1CC(C)CN(CCNC(=O)c2cn(C)c(=O)c3[nH]ccc23)C1 (centres unmarked)
R. CN1CCCC1CCNC(=O)c1cn(C)c(=O)c2[nH]ccc12 (centres unmarked)
Hey, quick one: sort these by IC50, largest value first please. Put the labels in the requested order and write them down.
Q, R, P
(Q: 5400 nM, R: 990 nM, P: 200 nM)

====

# literature pull: BRD9 (Homo sapiens, UniProt Q9H8M2) IC50
ASSAY_METRIC: IC50 (nM)

Below, 3 compounds whose answers are already recorded.
>>> quantitative_readout("Cn1cc(C(=O)NCC2CCCCCC2)c2cc[nH]c2c1=O")
490
>>> quantitative_readout("Cn1cc(C(=O)N[C@H](c2ccccc2)[C@@H](O)c2ccccc2)c2cc[nH]c2c1=O")
3400
>>> quantitative_readout("CC=CCn1cc(C(=O)NCCCN2CCN(C)CC2)c2cc[nH]c2c1=O")
920

I. CC(NC(=O)c1cn(C)c(=O)c2[nH]ccc12)c1ccc(F)cc1 (centres unmarked)
II. CN1CCC(CNC(=O)c2cn(C)c(=O)c3[nH]ccc23)CC1
III. COc1cc(-c2cn(C)c(=O)c3cc(C(=N)NC4CCS(=O)(=O)CC4)sc23)ccc1OCC(=O)NCCCCCCCCNc1ccc2c(c1)C(=O)N(C1CCC(=O)NC1=O)C2=O (centres unmarked)
Hey, quick one: sort these by IC50, largest value first please. Put the labels in the requested order and write them down.
II, I, III

I. CCCCn1cc(-c2ncc(C(=O)N3CCN(C)CC3)cc2OC)c2cc(C)[nH]c2c1=O
II. Cn1cc(C(=O)N[C@H](C(N)=O)c2ccccc2)c2cc[nH]c2c1=O
III. CCCCn1cc(-c2cc(C(=O)N3CC4(CN(C(C)=O)C4)C3)ccc2OC)c2cc[nH]c2c1=O
IV. Cc1cc(CC(C)NC(=O)c2cn(C)c(=O)c3[nH]ccc23)on1 (centres unmarked)
Put the items in order so that reported IC50 rises from first to last. Put the labels in the requested order and write them down.
III, I, II, IV
(III: 65 nM, I: 180 nM, II: 300 nM, IV: 2200 nM)

====

# literature pull: BRD9 (Homo sapiens, UniProt Q9H8M2) IC50
ASSAY_METRIC: IC50 (nM)

Below, 2 compounds whose answers are already recorded.
>>> quantitative_readout("C/C=C/Cn1cc(-c2ccc(C(=O)N3CCNCC3)c(Cl)c2)c2cc(C)[nH]c2c1=O")
4
>>> quantitative_readout("CCCCn1cc(-c2cc(OC)c(C(=O)N3CCOCC3)cc2OC)c2cc(C)[nH]c2c1=O")
17

a. Cn1cc(C(=O)NCc2ccccc2)c2cc[nH]c2c1=O
b. C/C=C/Cn1cc(-c2cc(C(=O)NCC(C)C)ccc2OC)c2cc[nH]c2c1=O
c. CC=CCn1cc(C(=O)NCC2CCN(C)CC2)c2cc[nH]c2c1=O
d. COc1cc(-c2cn(C)c(=O)c3cc(C(=N)NC4CCS(=O)(=O)CC4)sc23)ccc1OCC(=O)NCCCCCCCCNC(=O)COc1cccc2c1C(=O)N(C1CCC(=O)NC1=O)C2=O (stereo not shown)
e. COc1cc(-c2cn(C)c(=O)c3cnccc23)cc(OC)c1CN(C)CC(=O)NCCOCCOCCOCC(=O)N[C@@H](C(=O)N1C[C@@H](O)C[C@@H]1C(=O)NCc1ccc(-c2scnc2C)cc1)C(C)(C)C
Put the items in order so that reported IC50 rises from first to last. Put the labels in the requested order and write them down.
d, b, e, a, c
(d: 18.9 nM, b: 28 nM, e: 43.2 nM, a: 180 nM, c: 5400 nM)
